The reported numbers originate from ChEMBL document CHEMBL1130960.

- assay_overview: Inhibition of binding to fibrinogen receptor
property_name: Log IC50

| molecule | property_name | observed_value |
| --- | --- | --- |
| N=C(N)c1ccc(OCCCCC(=O)NC(CC(=O)O)C(=O)NC(Cc2ccc(O)cc2)C(=O)O)cc1 (centres undefined) | Log IC50 | -6.19 |
| COc1ccc(CC(NC(=O)C(CC(=O)O)NC(=O)CCCCOc2ccc(C(=N)N)cc2)C(=O)O)cc1 (centres undefined) | Log IC50 | -6.57 |
| CC[C@H](C)[C@H](NC(=O)[C@H](CC(=O)O)NC(=O)CCCOc1ccc(C(=N)N)cc1)C(=O)O | Log IC50 | -6.85 |
| CCCCC(NC(=O)C(CC(=O)O)NC(=O)CCCOc1ccc(C(=N)N)cc1)C(=O)O (centres undefined) | Log IC50 | -7.12 |
| CC(C)c1ccc(OCCNC(=O)C(CC(=O)O)NC(=O)CCCOc2ccc(C(=N)N)cc2)cc1 (centres undefined) | Log IC50 | -6.4 |
| COC(=O)C(Cc1ccc(O)cc1)NC(=O)C(CC(=O)O)NC(=O)CCCCOc1ccc(C(=N)N)cc1 (centres undefined) | Log IC50 | -5.35 |
| CC(C)CC(NC(=O)C(CC(=O)O)NC(=O)CCCOc1ccc(C(=N)N)cc1)C(=O)O (centres undefined) | Log IC50 | -6.87 |
| COc1ccc(CC(NC(=O)C(CC(=O)O)NC(=O)CCCOc2ccc(C(=N)N)cc2)C(=O)O)cc1 (centres undefined) | Log IC50 | -6.89 |
| Cc1ccc(OCCNC(=O)C(CC(=O)O)NC(=O)CCCOc2ccc(C(=N)N)cc2)cc1C (centres undefined) | Log IC50 | -6.3 |
